The origin of these recorded values is paper PMC2920133.

biological target: ArsD109 C13G/T15W (Escherichia coli, UniProt P46003, C13G/T15W/W35Y/W97Y); test: Intrinsic tryptophan fluorescence quenching, As; conditions: calculated from koff/kon
ENDPOINT_LABEL: pKd
Give bare numbers, as −log10 of the molar value.

Qu. I am curious: what pKd value has been reported for O=[As][O-].[Na+] [As(III), sodium arsenite] ?
Ans. 4.17

====

biological target: ArsD109 C18G/T15W (Escherichia coli, UniProt P46003, C18G/T15W/W35Y/W97Y); assay: Intrinsic tryptophan fluorescence quenching, As; details: calculated from koff/kon
ENDPOINT_LABEL: pKd
Numbers only, as −log10 of the molar value.

Qu. Looking for the measured pKd of O=[As][O-].[Na+] [As(III), sodium arsenite] , can you help?
Ans. 4.55
